src = PubChem BioAssay AID588754

# measured target: Scavenger receptor class B member 1 (Mus musculus)
# experiment summary: inhibition of HDL lipid transfer via mSR-BI – ldlA[mSR-BI] CHO cells, powder samples, set 5, dose response (AID 588754)
# condition info: DiI-HDL uptake fluorescence, 3 h
measured metric: AC50

Recorded results for 3 molecules are shown here.
molecule	AC50
COc1ccc(-c2nnn(CC(=O)N(CC(=O)N(C)C3CCCC3)C3CCCCC3)n2)cc1OC	1610 nM
CCC(=O)N1CCc2cc(-c3csc(NC(=O)c4ccc(F)c(OC)c4)n3)ccc21	25.8 nM
COc1ccc(-c2nc(CC(=O)N(C3CCCCC3)C(C)C(=O)NC3CCCC3)co2)cc1OC (configuration not stated)	148 nM

Could you tell me AC50 for each of these molecules? They are listed below.
1. CC(C(=O)NC1CCCC1)N(C(=O)Cn1nnc(-c2ccc3c(c2)OCO3)n1)C1CCCCC1 (configuration not stated)
2. CCC(=O)N1CCc2cc(-c3csc(NCc4cc(OC)cc(OC)c4)n3)ccc21
3. C[C@@H]1CN([C@H](C)CO)C(=O)c2cc(NC(=O)Cc3cn(C)c4ccccc34)ccc2O[C@H]1CN(C)S(=O)(=O)c1ccc(Cl)cc1
4. COc1ccc(-c2nnn(CC(=O)N(CC(=O)N3CCCCC3)C3CCCCC3)n2)cc1OC
5. CCC(=O)Nc1ccc(-c2csc(NC(=O)c3cccc(OC)c3)n2)cc1
6. COc1cc(OC)cc(C(=O)Nc2nc(-c3ccc4c(c3)CCN4C(=O)CN(C)C)cs2)c1

["49.9 nM", "372 nM", "5.98 nM", "9200 nM", "110 nM", "19.5 nM"]

Could you tell me AC50 for each of these molecules? They are listed below.
1. CCNC(=O)N1CCc2cc(-c3csc(NC(=O)c4cc(OC)cc(OC)c4)n3)ccc21
2. CCC(=O)N1CCc2cc(-c3csc(NC(=O)c4cccc(OC(F)(F)F)c4)n3)ccc21

2.28 nM
266 nM
